Data origin, for the record: patent US9669003B2

System: Kunming mice
Assay: Influence on autonomic activity of normal mice (ZIL-2 mice autonomic activity meter, counts within 10 min)
Type: in vivo
Conditions: intragastric, 25 mg/kg, 2 h after administration, x ± s, n = 10, 25 mg/kg
Reported Times of activities in 2 h after drug administration/10 min values for the following molecules.

Query COc1ccc(C2CC(=O)c3c(O)c(OC)c(OC)c(OC)c3O2)cc1OC (stereo not shown) [Example 43] yields Times of activities in 2 h after drug administration/10 min of 306.3 ± 51.6 /10 min

---

Tested on: Kunming mice
Assay: Influence on hypnosis effect with pentobarbital sodium doses at the threshold (50 mg/kg i.p.)
Assay type: in vivo
Conditions: 100 mg/kg intragastric single dose, pentobarbital sodium 50 mg/kg i.p. 60 min later, x ± s, n = 10
REPORTED_PROPERTY: duration of sleep
Please don't drop the unit; write it after the number.

Summary for this molecule, CCCc1cc(-c2cc(=O)c3c(I)cc(CCS(=O)(=O)O)cc3o2)cc(C(N)=O)c1C(=O)O [Example 23] : duration of sleep is 64.89 ± 45.78 min

The molecule COc1ccc(C2CC(=O)c3c(cc(OC)c(OC)c3OC)O2)cc1 (stereo not shown) [Example 65, 5,6,7,4′-tetra methoxyl-flavanone] showed duration of sleep equal to 57.62 ± 24.57 min

Measured duration of sleep of CCCc1cc(O)cc2c1C(=O)CC(c1ccc(-c3ccccc3)c([N+](=O)[O-])c1)O2 (stereo not shown) [Example 70] : 73.09 ± 25.56 min

Quick note, duration of sleep for COc1cc(OC)c2c(c1)OC(c1cc(OC)c(OC)c(OC)c1OC)CC2=O (stereo not shown) [Example 66, 5,7,2′,3′,4′,5′-hexa methoxyl-flavanone] landed at 61.44 ± 47.33 min

---

System: Kunming mice
Experiment: Influence on autonomic activity of normal mice (ZIL-2 mice autonomic activity meter, counts within 10 min)
Format: in vivo
Settings: intragastric, 25 mg/kg, 2 h after administration, x ± s, n = 10
Protocol: 1.1 Animals for experiments: Kunming mice, weighting 18.9˜22.2 g for females, and 20.2˜23.0 g for males, licensed under SCXK-(Ji) 2007-0003, and provided by The experimental animal centre, Jilin University. […] After observing the general behavior, in 1 h, 2 h and 24 h after drug administration, respectively, ZIL-2 mice autonomic activity meter is put respectively. Number of autonomic activities of each group of mice is measured within 10 min. […]
Let's look at some compounds and their measured Times of activities in 2 h after drug administration/10 min.

COMPOUND: CCCc1cc(O)cc2c1C(=O)CC(c1ccc(-c3ccccc3)c([N+](=O)[O-])c1)O2 (centres unmarked)
TARGET_UNDER_TEST: Kunming mice
REPORTED_RESULT: 227.8 ± 32.9 /10 min
//
COMPOUND: COc1ccc(O)cc1-c1cc(=O)c2c(O)cc(OC)c(OC)c2o1
TARGET_UNDER_TEST: Kunming mice
REPORTED_RESULT: 284.2 ± 41.7 /10 min
//
COMPOUND: COc1ccc(C2CC(=O)c3cc(OC)c(OC)c(OC)c3O2)cc1OC (centres unmarked)
TARGET_UNDER_TEST: Kunming mice
REPORTED_RESULT: 223.2 ± 41.4 /10 min
//
COMPOUND: COc1ccc(-c2cc(=O)c3c(OC)c(OC)c(OC)c(OC)c3o2)cc1OC
TARGET_UNDER_TEST: Kunming mice
REPORTED_RESULT: 281.1 ± 41.6 /10 min
//
COMPOUND: C#Cc1ccc(-c2cc(=O)c3cc(F)c(C(=O)O)c(O)c3o2)cc1CCCCCCCCCCCCCCCCCCCC
TARGET_UNDER_TEST: Kunming mice
REPORTED_RESULT: 298.2 ± 35.6 /10 min
//
COMPOUND: COc1cc(OC)c2c(=O)cc(-c3cc(OC)c(OC)c(OC)c3)oc2c1
TARGET_UNDER_TEST: Kunming mice
REPORTED_RESULT: 211.2 ± 36.3 /10 min

Data point: COc1ccc(-c2cc(=O)c3c(OC)cc(O)cc3o2)cc1OC [Example 5, 7-hydroxyl-5,3′,4′-trimethoxyl-flavone] ; Times of activities in 2 h after drug administration/10 min = 243.2 ± 42.8 /10 min

Reported Times of activities in 2 h after drug administration/10 min ( COc1ccc(C2CC(=O)c3cc(CCS(=O)(=O)O)c(C4CCNC4)c(N)c3O2)cc1SC#N (centres unmarked) ) = 229.8 ± 75.0 /10 min

Record `COc1ccc(-c2oc3c(OC)c(OC)c(OC)c(OC)c3c(=O)c2OC)cc1OC` , field Times of activities in 2 h after drug administration/10 min: 266.0 ± 40.6 /10 min

Entry COc1ccc(C2CC(=O)c3c(OC)c(OC)c(OC)c(OC)c3O2)cc1OC (centres unmarked) — recorded Times of activities in 2 h after drug administration/10 min = 229.4 ± 53.7 /10 min

The recorded Times of activities in 2 h after drug administration/10 min for `N#CSc1ccc(-c2cc(=O)c3cc(N)c(F)c(C#N)c3o2)cc1O` is 278.3 ± 42.9 /10 min

For this compound ( `CCCc1cc2c(=O)cc(-c3ccc(C(=O)O)c(C(N)=O)c3)oc2c(I)c1CCS(=O)(=O)O` ), measured Times of activities in 2 h after drug administration/10 min is 278.8 ± 49.0 /10 min

Notebook: CCc1cc(C2CC(=O)c3cc([N+](=O)[O-])c(SC#N)c(C4CCNC4)c3O2)ccc1C(=O)c1ccccc1 (centres unmarked) , Times of activities in 2 h after drug administration/10 min read as 287.3 ± 72.9 /10 min

Form field Times of activities in 2 h after drug administration/10 min, entry COc1cc(OC)c2c(=O)cc(-c3ccccc3O)oc2c1OC [Example 3, 2′-hydroxyl-5,7,8-trimethoxyl-flavone] : 264.7 ± 46.1 /10 min

---

Tested on: Kunming mice
Test: Influence on autonomic activity of normal mice (ZIL-2 mice autonomic activity meter, counts within 10 min)
Type: in vivo
Settings: intragastric, 50 mg/kg, 1 h after administration, x ± s, n = 10
// reported Times of activities in 1 h after drug administration/10 min per item

MOLECULE: CC=Cc1cc(Cc2ccccc2)c2c(=O)cc(-c3cc(C#N)c([N+](=O)[O-])c(Cc4ccccc4)c3)oc2c1 [Example 25]
REPORTED_RESULT: 185.3 ± 51.1 /10 min
--
MOLECULE: COc1ccc(C2CC(=O)c3cc(OC)c(OC)c(OC)c3O2)cc1OC (stereo not shown) [Example 45, 6,7,8,3′,4′-penta methoxyl-flavanone]
REPORTED_RESULT: 136.6 ± 40.5 /10 min
--
MOLECULE: CCCCCc1cc(-c2cc(=O)c3c(CC)cc(CCCCCCl)cc3o2)cc(O)c1Cc1ccccc1 [Example 19]
REPORTED_RESULT: 234.7 ± 40.1 /10 min
--
MOLECULE: COc1ccc(C2CC(=O)c3c(OC)c(OC)c(OC)c(OC)c3O2)cc1 (stereo not shown) [Example 47, 5,6,7,8,4′-penta methoxyl-flavanone]
REPORTED_RESULT: 280.7 ± 61.3 /10 min

C=Cc1cc2c(=O)cc(-c3ccc(CC)c(N)c3)oc2c(C2CCSC2)c1C(N)=O (stereo not shown) [Example 30] yielded Times of activities in 1 h after drug administration/10 min of 235.8 ± 42.1 /10 min

Reported Times of activities in 1 h after drug administration/10 min for COc1cc(OC)c2c(c1)OC(c1cc(OC)c(OC)c(OC)c1OC)CC2=O (stereo not shown) [Example 66, 5,7,2′,3′,4′,5′-hexa methoxyl-flavanone] was 275.8 ± 44.3 /10 min

Form: molecule = CC=Cc1cc(-c2cc(=O)c3c(CCCCC)cc(C(=O)O)cc3o2)cc(C(=O)O)c1C#N [Example 26] ; Times of activities in 1 h after drug administration/10 min = 284.7 ± 46.1 /10 min

Looking up COc1cc(C2Oc3c(cc(OC)c(OC)c3OC)C(=O)C2OC)c(O)c(OC)c1OC (stereo not shown) [Example 69] , I see its Times of activities in 1 h after drug administration/10 min listed as 298.0 ± 41.5 /10 min

// field: Times of activities in 1 h after drug administration/10 min; key: CCc1cccc2c1C(=O)CC(c1cc(F)cc(C(=O)O)c1)O2 (stereo not shown) [Example 53] ; value = 249.3 ± 61.0 /10 min

Sure, the documented Times of activities in 1 h after drug administration/10 min for CC=Cc1c(C(=O)O)cc2c(=O)cc(-c3ccc(F)c(C#N)c3)oc2c1C(=O)O [Example 34] is 249.4 ± 62.4 /10 min

The recorded Times of activities in 1 h after drug administration/10 min for COc1cc(OC)c2c(=O)cc(-c3cc(OC)c(OC)c(OC)c3)oc2c1 [Example 1, 5,7,3′,4′,5′-penta methoxyl-flavone] is 137.1 ± 52.3 /10 min

Entry under test: O=C1CC(c2ccc(O)c(O)c2)Oc2cc(O)cc(O)c21 (stereo not shown) [Example 71] . Its Times of activities in 1 h after drug administration/10 min was 278.9 ± 45.0 /10 min

So, CC=Cc1cc(I)cc2c1OC(c1cccc(C(=O)O)c1)CC2=O (stereo not shown) [Example 60] ? Its Times of activities in 1 h after drug administration/10 min was 143.3 ± 64.7 /10 min

Entry COc1ccc(C2CC(=O)c3c(O)c(OC)c(OC)c(OC)c3O2)cc1 (stereo not shown) [Example 42] — recorded Times of activities in 1 h after drug administration/10 min = 154.5 ± 43.2 /10 min

get_value(item= CCCc1cc2c(=O)cc(-c3ccc(C(=O)O)c(C(N)=O)c3)oc2c(I)c1CCS(=O)(=O)O [Example 35] , readout=Times of activities in 1 h after drug administration/10 min) returns 310.3 ± 48.9 /10 min

Memo: COc1ccc(O)cc1-c1cc(=O)c2c(O)cc(OC)c(OC)c2o1 [Example 12] , reported Times of activities in 1 h after drug administration/10 min: 179.5 ± 51.4 /10 min
